methodSummary: Noncompartmental pharmacokinetic analysis of whole-blood sirolimus
Type: in vivo, human
conditionNotes: human, whole blood, po, 2.5 mg/m^2/day, C24 (trough concentration at 24 hours after oral dosing), Oral Fluconazole (n = 6); mean ± SD (range)
measuredParameter: concentration at 24 h
Answer with the figure and its unit, nothing else.

Asked: What value of concentration at 24 h has been recorded for this entry: CO[C@H]1C[C@@H]2CC[C@@H](C)[C@@](O)(O2)C(=O)C(=O)N2CCCC[C@H]2C(=O)O[C@H]([C@H](C)C[C@@H]2CC[C@@H](O)[C@H](OC)C2)CC(=O)[C@H](C)/C=C(\C)[C@@H](O)[C@@H](OC)C(=O)[C@H](C)C[C@H](C)/C=C/C=C/C=C/1C [sirolimus, Sirolimus]
Given back: 8.6 ng/mL
